system: Bacillus subtilis subsp. subtilis str. 168; experiment: Copper chelating activity in Bacillus subtilis 168 assessed as reduction in cytochrome c oxidase activity by measuring increase in ROS level at 10 uM measured over 40 mins by H2DCFDA staining based fluorescence method relative to control
Activity calls are given as the source filed them. The rule behind the calls is not given here.
PROPERTY MEASURED: Activity

Sample records with Activity:
1) CC(=O)OC[C@H](CCCCNC(=O)C[C@@H](C)C#N)NC(=O)C[C@@H](C)C#N ... Active
2) CC(C)CCC(=O)NC[C@@H]1CC[C@H](NC(=O)C[C@@H](C)C#N)C(O)O1 (stereo partly specified) ... inactive
3) C[C@@H](C#N)CC(=O)NCCCC[C@@H](CO)NC(=O)C[C@@H](C)C#N ... Active
4) C[C@H](CC(=O)NCCCC[C@@H](CO)NC(=O)C[C@@H](C)C#N)NC=O ... inactive
5) C[C@H](CC(=O)NC[C@@H]1CC[C@H](NC(=O)C[C@@H](C)NC=O)C(O)O1)NC=O (stereo partly specified) ... inactive

Prompt line: Dear colleague, I am looking for the recorded Activity of the following compound: C[C@H](CC(=O)N[C@H]1CC[C@@H](CNC(=O)C[C@@H](C)C#N)OC1O)NC=O (stereo partly specified)
Response line: inactive

Prompt line: Queued: C[C@H](CC(=O)N[C@H](CO)CCCCNC(=O)C[C@@H](C)C#N)NC=O
Response line: inactive

Prompt line: Queued: C[C@H](CC(=O)NCCCC[C@@H](CO)NC(=O)C[C@@H](C)NC=O)NC=O
Response line: inactive

====

tested on: Bacillus subtilis; assay: Antibacterial activity against Bacillus subtilis 168 at 10 uM after 12 hrs relative to control; type: functional; conditions: Bacillus subtilis subsp. subtilis str. 168
The source made the active and inactive calls. The calls are words filed in the database; no cut-off is given here.
Please answer using one outcome listed in active, inactive

Examples with answers:
1. C[C@H](CC(=O)NCCCC[C@@H](CO)NC(=O)C[C@@H](C)NC=O)NC=O ... inactive
2. C[C@H](CC(=O)NC[C@@H]1CC[C@H](NC(=O)C[C@@H](C)NC=O)C(O)O1)NC=O (stereo partly specified) ... inactive
3. C[C@H](CC(=O)N[C@H]1CC[C@@H](CNC(=O)C[C@@H](C)C#N)OC1O)NC=O (stereo partly specified) ... inactive
4. CC(=O)OC[C@H](CCCCNC(=O)C[C@@H](C)NC=O)NC(=O)C[C@@H](C)NC=O ... inactive
5. C[C@H](CC(=O)NCCCC[C@@H](CO)NC(=O)C[C@@H](C)C#N)NC=O ... inactive

Prompt line: Hi, sorry to bother you, what did the test record for CC(C)CC(=O)NC[C@@H]1CC[C@H](NC(=O)CC(C)C)C(O)O1 (stereo partly specified) ?
Response line: inactive

Prompt line: Queued: C[C@H](CC(=O)N[C@H](CO)CCCCNC(=O)C[C@@H](C)C#N)NC=O
Response line: inactive

Prompt line: Queued: CC(=O)OC[C@H](CCCCNC(=O)C[C@@H](C)C#N)NC(=O)C[C@@H](C)C#N
Response line: active

Prompt line: Queued: CC(C)=CCC(=O)NC[C@@H]1CC[C@H](NC(=O)C[C@@H](C)C#N)C(O)O1 (stereo partly specified)
Response line: inactive

Prompt line: Queued: CC(C)CCC(=O)NC[C@@H]1CC[C@H](NC(=O)C[C@@H](C)C#N)C(O)O1 (stereo partly specified)
Response line: inactive

Prompt line: Queued: C[C@@H](C#N)CC(=O)NCCCC[C@@H](CO)NC(=O)C[C@@H](C)C#N
Response line: active

====

system: Bacillus subtilis subsp. subtilis str. 168; experiment: Copper chelating activity in Bacillus subtilis 168 assessed as reduction in cytochrome c oxidase activity by measuring increase in ROS level at 10 uM measured over 40 mins by H2DCFDA staining based fluorescence method relative to control
Active and inactive are the calls of the source. No cut-off for these calls is given here.
PROPERTY MEASURED: Activity

1. CC(C)CC(=O)NC[C@@H]1CC[C@H](NC(=O)CC(C)C)C(O)O1 (stereo partly drawn) ... inactive
2. CC(C)=CCC(=O)NC[C@@H]1CC[C@H](NC(=O)C[C@@H](C)C#N)C(O)O1 (stereo partly drawn) ... inactive
3. CC(=O)OC[C@H](CCCCNC(=O)C[C@@H](C)NC=O)NC(=O)C[C@@H](C)NC=O ... inactive
